target: humanized development candidate monoclonal antibody IgG4 (hIgG4); assay: Gyrolab, mAb as capture, hIgG4 200 ng/ml, against the blank
# key: entry, value: S/B
The reply should be a number, written without any unit.

// solved cases for S/B follow
{"BINDER": "rabbit anti-human IgG monoclonal antibody clone 11G5 (antibody, V domains shown) VH: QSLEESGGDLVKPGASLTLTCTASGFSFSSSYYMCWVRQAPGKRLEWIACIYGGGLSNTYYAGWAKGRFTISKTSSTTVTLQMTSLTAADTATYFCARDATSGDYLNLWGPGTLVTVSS VL: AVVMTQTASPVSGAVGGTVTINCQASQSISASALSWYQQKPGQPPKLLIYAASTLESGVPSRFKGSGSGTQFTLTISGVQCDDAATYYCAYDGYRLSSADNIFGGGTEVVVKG", "QUANTITATIVE_RESULT": 24.8}
{"BINDER": "rabbit anti-human IgG monoclonal antibody clone 16F5 (antibody, V domains shown) VH: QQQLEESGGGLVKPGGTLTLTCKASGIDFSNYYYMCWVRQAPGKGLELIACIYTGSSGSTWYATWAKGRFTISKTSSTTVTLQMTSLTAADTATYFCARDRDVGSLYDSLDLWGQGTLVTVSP VL: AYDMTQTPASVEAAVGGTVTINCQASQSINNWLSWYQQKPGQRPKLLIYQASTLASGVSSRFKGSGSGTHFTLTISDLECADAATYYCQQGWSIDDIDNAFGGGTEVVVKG", "QUANTITATIVE_RESULT": 50.5}

Entry rabbit anti-human IgG monoclonal antibody clone 2C5 (antibody, V domains shown) VH: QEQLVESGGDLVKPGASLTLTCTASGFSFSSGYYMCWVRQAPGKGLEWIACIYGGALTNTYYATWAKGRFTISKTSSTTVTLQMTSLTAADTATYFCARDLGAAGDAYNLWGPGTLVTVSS VL: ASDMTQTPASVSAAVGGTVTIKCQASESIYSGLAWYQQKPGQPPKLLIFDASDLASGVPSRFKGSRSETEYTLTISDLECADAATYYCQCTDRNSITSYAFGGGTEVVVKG needs its S/B filled in; supply it.
41.7

Quickly give me recorded S/B for rabbit anti-human IgG monoclonal antibody clone 9E6 (antibody, V domains shown) VH: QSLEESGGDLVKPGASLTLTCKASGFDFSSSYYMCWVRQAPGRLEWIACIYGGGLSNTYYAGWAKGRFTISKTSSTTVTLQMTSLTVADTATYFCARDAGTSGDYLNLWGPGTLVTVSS VL: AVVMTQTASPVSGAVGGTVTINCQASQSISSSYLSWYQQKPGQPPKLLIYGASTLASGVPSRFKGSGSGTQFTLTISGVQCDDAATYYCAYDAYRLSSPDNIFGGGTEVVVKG
35.5
